Reference source: patent US10925971B2

test target: T1, monomeric human PRLR (hPRLR.mmh; SEQ ID NO:401) (Homo sapiens, UniProt P16471)
T1 construct: soluble monomeric (hPRLR.mmh); mmh (myc-myc-hexahistidine) (C)
T1 sequence (P16471 with tags, fused parts or gaps): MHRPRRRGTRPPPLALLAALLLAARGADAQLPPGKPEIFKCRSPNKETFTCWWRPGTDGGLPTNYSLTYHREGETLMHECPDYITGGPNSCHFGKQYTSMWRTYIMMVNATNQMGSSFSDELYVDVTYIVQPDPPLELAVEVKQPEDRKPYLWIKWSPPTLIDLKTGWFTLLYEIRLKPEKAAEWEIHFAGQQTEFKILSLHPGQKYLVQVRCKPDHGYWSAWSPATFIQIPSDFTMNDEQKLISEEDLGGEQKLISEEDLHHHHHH
measurement notes: Surface plasmon resonance (Biacore T200), antibody-capture format
Type: binding
conditions used: 37° C., analyte hPRLR.mmh
Protocol: Antibodies, expressed as human IgG1 Fc (i.e., “H1H” designations), were captured onto an anti-human Fc sensor surface (mAb-capture format), and soluble monomeric (hPRLR.mmh; SEQ ID NO:401, or Macaca fascicularis (mf) PRLR.mmh; SEQ ID NO:403) or dimeric (hPRLR.mFc; SEQ ID NO:402) PRLR protein was injected over the sensor surface. Measurements were conducted on a T200 Biacore instrument. […]
Catalogue of kd readings, one per entry.
The reply should contain only the number, in s⁻¹.

Please give the measured kd for this molecule: H1H6782P: fully human anti-PRLR antibody, non-blocking; HCVR/LCVR SEQ ID NOs 66/74 (antibody, V domains shown) VH: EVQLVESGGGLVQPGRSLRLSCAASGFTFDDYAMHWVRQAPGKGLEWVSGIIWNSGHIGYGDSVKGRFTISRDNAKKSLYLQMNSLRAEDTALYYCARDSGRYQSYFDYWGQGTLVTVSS VL: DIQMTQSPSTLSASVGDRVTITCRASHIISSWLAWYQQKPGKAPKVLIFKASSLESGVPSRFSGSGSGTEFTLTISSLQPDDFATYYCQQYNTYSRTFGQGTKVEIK 0.000716

More entries:
Please give the measured kd for this molecule: H1H6958N2: anti-PRLR antibody, receptor blocking, human IgG1 Fc form of H2M6958N2 of Table 1; HCVR/LCVR SEQ ID NOs 290/298 (antibody, V domains shown) VH: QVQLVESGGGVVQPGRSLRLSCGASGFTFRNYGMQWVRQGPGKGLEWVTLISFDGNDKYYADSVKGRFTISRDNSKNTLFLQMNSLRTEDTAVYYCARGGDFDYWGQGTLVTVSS VL: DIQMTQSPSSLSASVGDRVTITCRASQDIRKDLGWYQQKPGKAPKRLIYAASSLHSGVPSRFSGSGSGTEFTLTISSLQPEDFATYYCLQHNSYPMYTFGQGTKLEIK 0.00131
